Assign Kd to each entry below.
biological target: T1, monomeric human Tim3-ECD (human, UniProt Q8TDQ0 22-202); experiment: SPR, Ab captured on anti-mouse IgG, 25 C
T1 construct: also called huTim3; hu Tim3-ECD
One number for each entry, in µM.

Some solved cases for reference:
anti-TIM3 antibody Tim3_0021 (antibody, V domains shown, Mouse monoclonal from hybridoma) VH: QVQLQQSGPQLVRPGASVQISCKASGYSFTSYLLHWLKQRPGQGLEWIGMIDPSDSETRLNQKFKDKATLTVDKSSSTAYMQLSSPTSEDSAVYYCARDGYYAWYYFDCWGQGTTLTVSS VL: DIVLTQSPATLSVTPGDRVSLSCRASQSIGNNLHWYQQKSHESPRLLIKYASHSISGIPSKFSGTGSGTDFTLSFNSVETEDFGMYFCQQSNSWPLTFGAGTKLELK ... 0.204
anti-TIM3 antibody Tim3_0022 (antibody, V domains shown, Mouse monoclonal from hybridoma; also called <TIM-3> Ab(022)) VH: EVQLQESGPSLVKPSQTLSLTCSVTGDSIASAYWNWIRKFPGNKLEYMGYINYSGSTYYNPSLKSRISITRDTSQNQYYLQLNSVTTEDTATYYCVTGDYFDYWGRGTTLTVSS VL: DIQMTQSPSSLSAYLGGKVTITCKARQDVRKNIGWYQHKPGKGPRLLIWYTSTLQSGIPSRFSGSGSGRDYSFNINNLEPEDIATYYCLQYDNLPFTFGTGTKLEIR ... 0.126

Now let's try a different one.
Q) Bench note: what Kd did anti-TIM3 antibody Tim3_0026 (antibody, V domains shown, Mouse monoclonal from hybridoma) VH: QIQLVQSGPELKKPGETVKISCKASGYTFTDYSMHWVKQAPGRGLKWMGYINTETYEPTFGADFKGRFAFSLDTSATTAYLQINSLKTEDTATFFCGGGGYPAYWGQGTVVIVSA VL: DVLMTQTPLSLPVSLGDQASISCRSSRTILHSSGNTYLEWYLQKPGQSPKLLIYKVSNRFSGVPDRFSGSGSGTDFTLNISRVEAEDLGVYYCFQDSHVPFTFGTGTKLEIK show?
A) 0.00623
